Where do the numbers come from? From PubChem BioAssay AID1963444.

Test system: HSSY-II complex spheroid growth, percent test/control
Assay: Anticancer human tumor HSSY-II cell line growth inhibition [Asc];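 also: spheroids exposed to drug for 7 days before reading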
Conditions: curve of first compound; second compound 0.03 µM
Property Label: log10(IC50) (log10 of the value in µM)
Kindly note that the scale is log10 and the underlying IC50 is in µM.

[in] // log10(IC50) lookup, key: CCN1CCN(Cc2ccc(Nc3ncc(F)c(-c4cc(F)c5nc(C)n(C(C)C)c5c4)n3)nc2)CC1 + CCN1C(C(=O)NC23CCC(C(=O)O)(CC2)CC3)C(c2cccc(Cl)c2F)C2(C(=O)Nc3cc(Cl)ccc32)C12CCCCC2
[out] -1.08

[in] // log10(IC50) lookup, key: O=C(c1ccc(F)c(F)c1Nc1ccc(I)cc1F)N1CC(O)([C@@H]2CCCCN2)C1 + CCN1C(C(=O)NC23CCC(C(=O)O)(CC2)CC3)C(c2cccc(Cl)c2F)C2(C(=O)Nc3cc(Cl)ccc32)C12CCCCC2
[out] -0.31

[in] // log10(IC50) lookup, key: C=CC(=O)N1CCN(c2nc(=O)n(-c3c(C)ccnc3C(C)C)c3nc(-c4c(O)cccc4F)c(F)cc23)C(C)C1 (configuration not stated) + CCN1C(C(=O)NC23CCC(C(=O)O)(CC2)CC3)C(c2cccc(Cl)c2F)C2(C(=O)Nc3cc(Cl)ccc32)C12CCCCC2
[out] 0.86

[in] // log10(IC50) lookup, key: Cn1ncnc1[C@H]1c2n[nH]c(=O)c3cc(F)cc(c23)N[C@@H]1c1ccc(F)cc1 + CCN1C(C(=O)NC23CCC(C(=O)O)(CC2)CC3)C(c2cccc(Cl)c2F)C2(C(=O)Nc3cc(Cl)ccc32)C12CCCCC2
[out] -1.97

[in] // log10(IC50) lookup, key: COc1c(OCCCN2CCOCC2)ccc2c3n(c(=NC(=O)c4cnc(N)nc4)nc12)CCN3 + CCN1C(C(=O)NC23CCC(C(=O)O)(CC2)CC3)C(c2cccc(Cl)c2F)C2(C(=O)Nc3cc(Cl)ccc32)C12CCCCC2
[out] -1.57

----------
Answer each item with its documented viability, T/C.
System: HSSY-II complex spheroid growth, percent test/control
Test: Anticancer human tumor HSSY-II cell line growth inhibition [Asc];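 also: spheroids exposed to drug for 7 days before reading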
Details: second compound 1 µM; first compound 1 µM; stronger effect = lower value

[in] // viability, T/C lookup, key: COc1c(OCCCN2CCOCC2)ccc2c3n(c(=NC(=O)c4cnc(N)nc4)nc12)CCN3 + CNC(C)C(=O)NC1CN(S(=O)(=O)c2cccc(S(=O)(=O)N3CCC4CCC(C(=O)NC(c5ccccc5)c5ccccc5)N4C(=O)C(NC(=O)C(C)NC)C3)c2)CCC2CCC(C(=O)NC(c3ccccc3)c3ccccc3)N2C1=O
[out] 9.52%

[in] // viability, T/C lookup, key: O=C(c1ccc(F)c(F)c1Nc1ccc(I)cc1F)N1CC(O)([C@@H]2CCCCN2)C1 + CNC(C)C(=O)NC1CN(S(=O)(=O)c2cccc(S(=O)(=O)N3CCC4CCC(C(=O)NC(c5ccccc5)c5ccccc5)N4C(=O)C(NC(=O)C(C)NC)C3)c2)CCC2CCC(C(=O)NC(c3ccccc3)c3ccccc3)N2C1=O
[out] 21.9%

[in] // viability, T/C lookup, key: O=C(c1cc(Cc2n[nH]c(=O)c3ccccc23)ccc1F)N1CCN(C(=O)C2CC2)CC1 + CNC(C)C(=O)NC1CN(S(=O)(=O)c2cccc(S(=O)(=O)N3CCC4CCC(C(=O)NC(c5ccccc5)c5ccccc5)N4C(=O)C(NC(=O)C(C)NC)C3)c2)CCC2CCC(C(=O)NC(c3ccccc3)c3ccccc3)N2C1=O
[out] 72%

----------
Answer each item with its documented viability, T/C.
Tested on: HSSY-II complex spheroid growth, percent test/control
Experiment: Anticancer human tumor HSSY-II cell line growth inhibition [Asc];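 also: spheroids exposed to drug for 7 days before reading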
Settings: second compound 0.3 µM; first compound 10 µM; stronger effect = lower value
Description: Multicellular complex tumor spheroid response to apoptosis pathway targeting inhibitors Alrizomadlin, Pelcitoclax, and Dasminapant in combination with a variety of drugs and investigational agents in selected tumor cell lines […] Compounds. […] If the clinical Cmax for an agent had not been determined, the highest concentration tested was 10 microM. […]
Answer with a number only, understood to be in %.

[in] // viability, T/C lookup, key: O=C(c1cc(Cc2n[nH]c(=O)c3ccccc23)ccc1F)N1CCN(C(=O)C2CC2)CC1 + CCN1C(C(=O)NC23CCC(C(=O)O)(CC2)CC3)C(c2cccc(Cl)c2F)C2(C(=O)Nc3cc(Cl)ccc32)C12CCCCC2
[out] 6.14

[in] // viability, T/C lookup, key: C=CC(=O)N1CCN(c2nc(=O)n(-c3c(C)ccnc3C(C)C)c3nc(-c4c(O)cccc4F)c(F)cc23)C(C)C1 (centres undefined) + CCN1C(C(=O)NC23CCC(C(=O)O)(CC2)CC3)C(c2cccc(Cl)c2F)C2(C(=O)Nc3cc(Cl)ccc32)C12CCCCC2
[out] 9.83

[in] // viability, T/C lookup, key: C=C(F)C(=O)N1CCN(c2nc(OCC3CCCN3C)nc3c2CCN(c2cccc4cccc(Cl)c24)C3)CC1CC#N (centres undefined) + CCN1C(C(=O)NC23CCC(C(=O)O)(CC2)CC3)C(c2cccc(Cl)c2F)C2(C(=O)Nc3cc(Cl)ccc32)C12CCCCC2
[out] 0.12

[in] // viability, T/C lookup, key: C#Cc1c(F)ccc2cc(O)cc(-c3ncc4c(N5CC6CCC(C5)N6)nc(OCC56CCCN5CC(F)C6)nc4c3F)c12 (centres undefined) + CCN1C(C(=O)NC23CCC(C(=O)O)(CC2)CC3)C(c2cccc(Cl)c2F)C2(C(=O)Nc3cc(Cl)ccc32)C12CCCCC2
[out] 0.94

----------
Test system: HSSY-II complex spheroid growth, percent test/control
Experiment: Anticancer human tumor HSSY-II cell line growth inhibition [Asc];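 also: spheroids exposed to drug for 7 days before reading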
Conditions: curve of first compound; second compound 0.0949 µM
Answer each item with its documented IC50.

[in] // IC50 lookup, key: C#Cc1c(F)ccc2cc(O)cc(-c3ncc4c(N5CC6CCC(C5)N6)nc(OCC56CCCN5CC(F)C6)nc4c3F)c12 (stereo not drawn) + CCN1C(C(=O)NC23CCC(C(=O)O)(CC2)CC3)C(c2cccc(Cl)c2F)C2(C(=O)Nc3cc(Cl)ccc32)C12CCCCC2
[out] 3250 nM

[in] // IC50 lookup, key: O=C(c1cc(Cc2n[nH]c(=O)c3ccccc23)ccc1F)N1CCN(C(=O)C2CC2)CC1 + CCN1C(C(=O)NC23CCC(C(=O)O)(CC2)CC3)C(c2cccc(Cl)c2F)C2(C(=O)Nc3cc(Cl)ccc32)C12CCCCC2
[out] 196 nM

[in] // IC50 lookup, key: O=C(c1ccc(F)c(F)c1Nc1ccc(I)cc1F)N1CC(O)([C@@H]2CCCCN2)C1 + CCN1C(C(=O)NC23CCC(C(=O)O)(CC2)CC3)C(c2cccc(Cl)c2F)C2(C(=O)Nc3cc(Cl)ccc32)C12CCCCC2
[out] 186 nM

----------
Test system: HSSY-II complex spheroid growth, percent test/control
Assay: Anticancer human tumor HSSY-II cell line growth inhibition [Asc];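 also: spheroids exposed to drug for 7 days before reading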
Settings: curve of first compound; second compound 0.0316 µM
Property Label: pIC50
The read-out pIC50 is expressed as -log10 of concentration in moles per litre.

[in] Any idea what pIC50 came out for O=C(c1ccc(F)c(F)c1Nc1ccc(I)cc1F)N1CC(O)([C@@H]2CCCCN2)C1 + CNC(C)C(=O)NC1CN(S(=O)(=O)c2cccc(S(=O)(=O)N3CCC4CCC(C(=O)NC(c5ccccc5)c5ccccc5)N4C(=O)C(NC(=O)C(C)NC)C3)c2)CCC2CCC(C(=O)NC(c3ccccc3)c3ccccc3)N2C1=O on HSSY-II complex spheroid growth, percent test/control?
[out] 6.29

[in] Any idea what pIC50 came out for Cn1ncnc1[C@H]1c2n[nH]c(=O)c3cc(F)cc(c23)N[C@@H]1c1ccc(F)cc1 + CNC(C)C(=O)NC1CN(S(=O)(=O)c2cccc(S(=O)(=O)N3CCC4CCC(C(=O)NC(c5ccccc5)c5ccccc5)N4C(=O)C(NC(=O)C(C)NC)C3)c2)CCC2CCC(C(=O)NC(c3ccccc3)c3ccccc3)N2C1=O on HSSY-II complex spheroid growth, percent test/control?
[out] 7.65

[in] Any idea what pIC50 came out for C=CC(=O)N1CCN(c2nc(=O)n(-c3c(C)ccnc3C(C)C)c3nc(-c4c(O)cccc4F)c(F)cc23)C(C)C1 (stereo not drawn) + CNC(C)C(=O)NC1CN(S(=O)(=O)c2cccc(S(=O)(=O)N3CCC4CCC(C(=O)NC(c5ccccc5)c5ccccc5)N4C(=O)C(NC(=O)C(C)NC)C3)c2)CCC2CCC(C(=O)NC(c3ccccc3)c3ccccc3)N2C1=O on HSSY-II complex spheroid growth, percent test/control?
[out] 5.23

----------
Tested on: HSSY-II complex spheroid growth, percent test/control
Assay: Anticancer human tumor HSSY-II cell line growth inhibition [Asc];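 also: spheroids exposed to drug for 7 days before reading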
Conditions: second compound 1 µM; first compound 0.1 µM; stronger effect = lower value
Property Label: viability, T/C (%)
Answer with a number only, understood to be in %.

[in] Any idea what viability, T/C came out for COc1c(OCCCN2CCOCC2)ccc2c3n(c(=NC(=O)c4cnc(N)nc4)nc12)CCN3 + Cc1c(S(C)(=O)=O)c(-c2cc(F)cc(N3CCN(c4ccc(NS(=O)(=O)c5ccc(NC(CCN6CCC(C(=O)OCCCP(=O)(O)O)CC6)CSc6ccccc6)c(S(=O)(=O)C(F)(F)F)c5)cc4)CC3)c2)c(-c2ccc(Cl)cc2)n1C(C)C on HSSY-II complex spheroid growth, percent test/control?
[out] 30.4

[in] Any idea what viability, T/C came out for O=C(c1cc(Cc2n[nH]c(=O)c3ccccc23)ccc1F)N1CCN(C(=O)C2CC2)CC1 + Cc1c(S(C)(=O)=O)c(-c2cc(F)cc(N3CCN(c4ccc(NS(=O)(=O)c5ccc(NC(CCN6CCC(C(=O)OCCCP(=O)(O)O)CC6)CSc6ccccc6)c(S(=O)(=O)C(F)(F)F)c5)cc4)CC3)c2)c(-c2ccc(Cl)cc2)n1C(C)C on HSSY-II complex spheroid growth, percent test/control?
[out] 92.8

[in] Any idea what viability, T/C came out for COc1c(OCCCN2CCOCC2)ccc2c3n(c(=NC(=O)c4cnc(N)nc4)nc12)CCN3 + CNC(C)C(=O)NC1CN(S(=O)(=O)c2cccc(S(=O)(=O)N3CCC4CCC(C(=O)NC(c5ccccc5)c5ccccc5)N4C(=O)C(NC(=O)C(C)NC)C3)c2)CCC2CCC(C(=O)NC(c3ccccc3)c3ccccc3)N2C1=O on HSSY-II complex spheroid growth, percent test/control?
[out] 33.7
